Every entry's value here was drawn from patent US20250197379A1.

# tested-target: elF4A1 (Homo sapiens, UniProt P60842)
# Construct: endogenous in cells
# Sequence (P60842 whole entry): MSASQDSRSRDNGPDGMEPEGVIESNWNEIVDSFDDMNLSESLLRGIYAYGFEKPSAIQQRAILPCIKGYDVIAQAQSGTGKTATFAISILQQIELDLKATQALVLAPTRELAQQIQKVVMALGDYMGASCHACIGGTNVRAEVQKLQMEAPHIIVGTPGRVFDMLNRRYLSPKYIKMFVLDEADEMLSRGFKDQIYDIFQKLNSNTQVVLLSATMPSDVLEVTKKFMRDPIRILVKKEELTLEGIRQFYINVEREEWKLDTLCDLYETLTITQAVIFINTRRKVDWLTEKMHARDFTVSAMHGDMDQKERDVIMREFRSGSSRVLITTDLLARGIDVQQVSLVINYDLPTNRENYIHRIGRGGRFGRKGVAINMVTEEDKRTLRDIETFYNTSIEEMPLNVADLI
# test-description: Dual luciferase assay for cap dependent translation initiation (eIF4A)
# setup-conditions: Biochemical and cell based activity
# Protocol: Dual luciferase assay for Cap-dependent translation initiation was performed in HeLa cells transfected with pFR_HCV_xb. […] After incubation, Dual luciferase reporter assay was performed according to the manufacturer's instruction and the luminescence was measured using a multiplate reader. Data were normalized to cells transfected with the indicated mutant and exposed to DMSO for 24 h. DMSO-treated cells were set as 1. The bars represent mean±SD from 3 independent experiments. […]
result-type: IC50 (nM)
Your answer should be a plain number; it is taken to be in nM.

Check the records and state IC50 for "COc1cc(OC)c2c(c1)O[C@@]1(c3ccc(C#N)cc3)[C@H](c3cccc(F)c3)C[C@H](NC(=O)N3CCN(C)CC3)[C@@]21O"
21

Please report IC50 for the following molecule: "COc1cc(OC)c2c(c1)O[C@@]1(c3ccc(C#N)cc3)[C@H](c3cccc(F)c3)C[C@H](NC(=O)N3CCOCC3)[C@@]21O"
24

Kindly indicate its recorded IC50. Item: "COc1cc(OC)c2c(c1)O[C@@]1(c3ccc(Cl)cc3)[C@H](c3cccc(F)c3)C[C@H](NC(=O)N3CC(N(C)C)C3)[C@@]21O"
55

====

# tested-target: elF4A1 (Homo sapiens)
# Construct: endogenous in cells; host or cells: HeLa
# test-description: Dual luciferase assay for cap dependent translation initiation (eIF4A)
# setup-conditions: Biochemical and cell based activity
result-type: IC50
Quick note: unit goes after the number.

Give elF4A1 (Homo sapiens) IC50 for the following compound: "COc1cc(OC)c2c(c1)O[C@@]1(c3ccc(Cl)cc3)[C@H](c3cccc(F)c3)C[C@H](NC(=O)NCCO)[C@@]21O"
54 nM

Param request: IC50 | system elF4A1 (Homo sapiens) | item "COc1cc(OC)c2c(c1)O[C@@]1(c3ccc(Cl)cc3)[C@H](c3cccc(F)c3)C[C@H](NC(=O)N3CCC(N(C)C)CC3)[C@@]21O"
143 nM

Report the value of IC50 obtained on elF4A1 (Homo sapiens) for "COc1cc(OC)c2c(c1)O[C@@]1(c3ccc(Cl)cc3)[C@H](c3cccc(F)c3)C[C@H](NC(=O)N3CCOCC3)[C@@]21O" .
80 nM

For elF4A1 (Homo sapiens), give the measured IC50 of the entry "COc1cc(OC)c2c(c1)O[C@@]1(c3ccc(C#N)cc3)[C@H](c3cccc(F)c3)C[C@H](NC(=O)N3CCC3)[C@@]21O"
25 nM

Report IC50 under test system elF4A1 (Homo sapiens) for COc1cc(OC)c2c(c1)O[C@@]1(c3ccc(Cl)cc3)[C@H](c3cccc(F)c3)C[C@H](NC(=O)N3CCCC3)[C@@]21O (single isomer, unassigned) .
60 nM

Provide IC50, system elF4A1 (Homo sapiens), entry COc1cc(OC)c2c(c1)O[C@@]1(c3ccc(Cl)cc3)[C@H](c3cccc(F)c3)C[C@H](NC(=O)N3CCN(C)CC3)[C@@]21O (single isomer, unassigned)
84 nM

Give IC50 only, for CCN(CC)C(=O)N[C@H]1C[C@@H](c2cccc(F)c2)[C@]2(c3ccc(Cl)cc3)Oc3cc(OC)cc(OC)c3[C@]12O (single isomer, unassigned) , using elF4A1 (Homo sapiens) data.
75 nM
